Cited source for all entries: the supplement of paper PMC10065799

# phosphorylation enrichment values compiled below
System: AncSZ
Assay: phosphorylation enrichment, bacterial display (enrichment ratio); higher = better substrate or ligand; peptides without Tyr show the background
Give only the figure.

- PVFEVYPLLNC [GATA1_Y78_Q76E]: 1.64
- DSFWSYCNAVA [SLC20A2_Y436_S434W_YF]: 1.45
- DTLMEYLENPK [CYCS_Y68]: 1.51
- IEPGIYIPEDD [XPNPEP3_Y455]: 1.23
- SSENPYATIKD [MEGF10_Y1030]: 0.87

If you can, please state the reported phosphorylation enrichment value of IEELTYIIKQD [STX5_Y137] .
1.33

If you can, please state the reported phosphorylation enrichment value of KQFWRYFAGNL [SLC25A4_Y112] .
0.944

====

Target: EPHB2 (UniProt P29323)
Sequence (P29323 whole entry, looked up): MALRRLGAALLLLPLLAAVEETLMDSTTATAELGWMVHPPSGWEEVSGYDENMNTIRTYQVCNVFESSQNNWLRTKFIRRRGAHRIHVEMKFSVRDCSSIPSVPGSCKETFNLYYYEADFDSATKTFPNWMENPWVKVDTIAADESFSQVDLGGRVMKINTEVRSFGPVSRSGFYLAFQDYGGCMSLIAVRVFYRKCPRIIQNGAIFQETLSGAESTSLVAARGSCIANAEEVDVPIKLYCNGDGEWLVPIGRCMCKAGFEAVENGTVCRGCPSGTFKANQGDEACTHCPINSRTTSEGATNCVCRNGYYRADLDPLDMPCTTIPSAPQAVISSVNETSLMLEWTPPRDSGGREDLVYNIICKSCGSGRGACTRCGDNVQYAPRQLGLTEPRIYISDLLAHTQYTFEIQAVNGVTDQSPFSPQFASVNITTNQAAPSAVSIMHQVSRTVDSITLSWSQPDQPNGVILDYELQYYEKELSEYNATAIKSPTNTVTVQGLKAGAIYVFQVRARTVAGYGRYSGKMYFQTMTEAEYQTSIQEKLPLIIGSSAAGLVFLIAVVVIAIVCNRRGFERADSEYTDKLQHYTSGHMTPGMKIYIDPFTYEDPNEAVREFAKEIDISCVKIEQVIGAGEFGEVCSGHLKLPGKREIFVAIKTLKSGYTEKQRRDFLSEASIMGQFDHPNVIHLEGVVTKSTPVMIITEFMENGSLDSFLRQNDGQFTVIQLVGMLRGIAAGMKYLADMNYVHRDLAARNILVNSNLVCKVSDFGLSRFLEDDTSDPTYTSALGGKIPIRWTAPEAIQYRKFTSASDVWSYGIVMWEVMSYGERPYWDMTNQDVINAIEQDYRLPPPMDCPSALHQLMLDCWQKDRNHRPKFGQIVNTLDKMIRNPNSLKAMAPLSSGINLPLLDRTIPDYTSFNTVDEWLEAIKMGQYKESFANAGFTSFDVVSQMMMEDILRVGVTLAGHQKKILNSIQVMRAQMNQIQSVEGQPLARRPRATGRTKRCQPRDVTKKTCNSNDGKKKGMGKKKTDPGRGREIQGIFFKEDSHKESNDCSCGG
Test: phosphorylation enrichment, bacterial display (enrichment ratio); higher = better substrate or ligand; peptides without Tyr show the background
metric: phosphorylation enrichment
Give only the figure.

If you can, please state the reported phosphorylation enrichment value of FRDALYKFMVD [PHEX_Y250_YF] .
0.602

If you can, please state the reported phosphorylation enrichment value of YQLENCCNGGG [INS_Y108_Y108C] .
0.522

If you can, please state the reported phosphorylation enrichment value of RPIEVYLCPEE [E2F3_Y349_G344R] .
0.998

If you can, please state the reported phosphorylation enrichment value of KGSEGYLAATY [NF1_Y2503] .
0.365

If you can, please state the reported phosphorylation enrichment value of GIVEEYQLPFF [BMPR1A_Y453_YF] .
0.724

If you can, please state the reported phosphorylation enrichment value of RGEAVYSRDCV [XPC_Y676] .
0.655

If you can, please state the reported phosphorylation enrichment value of LFNQDYPIHCV [GATM_Y227_S231C_YF] .
0.889

If you can, please state the reported phosphorylation enrichment value of DVLEFYNSKKT [PAK1_Y131] .
0.544

If you can, please state the reported phosphorylation enrichment value of ARLEYYENEKK [IRS1_Y47] .
0.506

If you can, please state the reported phosphorylation enrichment value of TVSTRYTQPQP [SARG_Y259] .
0.427

If you can, please state the reported phosphorylation enrichment value of EKMWTYMRSAE [GRIA4_Y695] .
0.62

If you can, please state the reported phosphorylation enrichment value of TFEYRYLEDQD [CNOT3_Y746_R750Q] .
0.553

If you can, please state the reported phosphorylation enrichment value of CDGKEYDPVEA [MAPRE2_Y167_Y162C] .
0.66

If you can, please state the reported phosphorylation enrichment value of KSFDMYSGDVM [FAM3D_Y122_A118S] .
1.22

If you can, please state the reported phosphorylation enrichment value of SFCFRYRCAPR [SUMF1_Y344_A348P_YF] .
0.549

If you can, please state the reported phosphorylation enrichment value of KVPAIYGVGTR [CPS1_Y162_D165G] .
0.391

If you can, please state the reported phosphorylation enrichment value of GREEFYVHYVG [KAT8_Y90] .
0.67

If you can, please state the reported phosphorylation enrichment value of ERFSYYGMKAV [SLC15A2_Y61] .
0.658

If you can, please state the reported phosphorylation enrichment value of GNHVSYFQSDG [CACNA1C_Y1757_YF] .
0.427

If you can, please state the reported phosphorylation enrichment value of ISNATYKEIGL [FLT1_Y199] .
0.498

If you can, please state the reported phosphorylation enrichment value of EEGRVYVYHLS [ITGAE_Y549_R552H] .
0.491

If you can, please state the reported phosphorylation enrichment value of LKMLVYLDMSK [LRRC7_Y234] .
0.805

If you can, please state the reported phosphorylation enrichment value of AGLEDYDRLRP [RAC3_Y64_Q61L] .
0.791

====

Tested on: AncSZ
Assay: phosphorylation enrichment, bacterial display (enrichment ratio); higher = better substrate or ligand; peptides without Tyr show the background
# phosphorylation enrichment values compiled below

Example cases with answers are listed next.
- QEALEYFMKQM [PIK3CA_Y1038]: 1.36
- FFRDGHMPRQF [GSS_Y270_Y270H_YF]: 0.472
- LSSETYVKSFT [F5_Y2149_M2148T_YF]: 0.969
- SGRPGYCLGTR [SCO1_Y60]: 0.735
- LLVVLCKFRCF [PSEN1_Y154_Y154C_YF]: 1.4
- KAVLHYKHQNQ [MTOR_Y1804_E1799K]: 0.6

Turning now to a further record.
If you can, please state the reported phosphorylation enrichment value of GDEVEYMSVSF [GCLC_Y53_L55S] .
1.56

====

Molecular target: EPHB1 (UniProt P54762)
Sequence (P54762 whole entry, looked up): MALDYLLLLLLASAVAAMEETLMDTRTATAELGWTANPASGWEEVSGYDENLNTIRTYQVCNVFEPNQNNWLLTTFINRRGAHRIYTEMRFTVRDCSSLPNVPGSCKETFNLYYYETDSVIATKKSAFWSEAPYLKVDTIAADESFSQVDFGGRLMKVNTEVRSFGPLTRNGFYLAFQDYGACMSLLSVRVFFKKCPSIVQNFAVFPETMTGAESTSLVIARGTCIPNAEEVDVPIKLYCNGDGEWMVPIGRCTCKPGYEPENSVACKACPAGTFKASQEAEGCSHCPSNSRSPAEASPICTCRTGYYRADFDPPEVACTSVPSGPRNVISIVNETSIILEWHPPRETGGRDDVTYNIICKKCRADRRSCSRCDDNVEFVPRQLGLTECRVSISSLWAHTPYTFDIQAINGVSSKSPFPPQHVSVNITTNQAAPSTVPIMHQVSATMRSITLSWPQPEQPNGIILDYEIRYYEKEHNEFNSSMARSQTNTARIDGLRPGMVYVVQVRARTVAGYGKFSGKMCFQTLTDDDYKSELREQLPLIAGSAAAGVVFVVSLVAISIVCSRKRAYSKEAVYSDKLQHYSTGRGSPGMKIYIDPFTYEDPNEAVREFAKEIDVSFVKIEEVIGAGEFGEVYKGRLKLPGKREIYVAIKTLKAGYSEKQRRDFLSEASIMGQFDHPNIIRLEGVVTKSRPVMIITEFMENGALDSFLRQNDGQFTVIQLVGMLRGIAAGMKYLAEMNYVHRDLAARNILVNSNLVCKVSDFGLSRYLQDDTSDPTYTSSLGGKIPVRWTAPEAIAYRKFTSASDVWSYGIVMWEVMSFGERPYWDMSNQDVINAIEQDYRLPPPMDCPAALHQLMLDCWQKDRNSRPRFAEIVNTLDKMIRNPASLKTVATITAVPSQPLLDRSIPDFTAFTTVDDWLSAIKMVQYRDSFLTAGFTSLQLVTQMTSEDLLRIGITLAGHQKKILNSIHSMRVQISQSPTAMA
Assay: phosphorylation enrichment, bacterial display (enrichment ratio); higher = better substrate or ligand; peptides without Tyr show the background
Classify by measured phosphorylation enrichment: 1 if it is equal to or exceeds 0.6, -1 if it is smaller.

Study these solved cases before continuing.
- FRNSLYAPDYS [FAM92A_Y226]: 1
- SGRPGYCLGTR [SCO1_Y60]: -1
- ATDLAYFLVCK [ASL_Y375_R379C_YF]: 1
- LMLVLYGRIFL [HTR1A_Y215_R220L]: 1
- RWGQKHMTAVV [CYBA_Y72_Y72H]: -1

Has SVTCTYSPARN [TP53_Y126_L130R] a recorded phosphorylation enrichment greater than or equal to 0.6?
-1

Has LSSEMCVKSYT [F5_Y2149_Y2149C] a recorded phosphorylation enrichment greater than or equal to 0.6?
1

Has IKSSIYDNRKE [ARAP2_Y380] a recorded phosphorylation enrichment greater than or equal to 0.6?
-1

Has RSSNTYTLTDV [ALCAM_Y298] a recorded phosphorylation enrichment greater than or equal to 0.6?
-1

====

# phosphorylation enrichment values compiled below
Target: FGFR1 (UniProt P11362)
Sequence (P11362 whole entry, looked up): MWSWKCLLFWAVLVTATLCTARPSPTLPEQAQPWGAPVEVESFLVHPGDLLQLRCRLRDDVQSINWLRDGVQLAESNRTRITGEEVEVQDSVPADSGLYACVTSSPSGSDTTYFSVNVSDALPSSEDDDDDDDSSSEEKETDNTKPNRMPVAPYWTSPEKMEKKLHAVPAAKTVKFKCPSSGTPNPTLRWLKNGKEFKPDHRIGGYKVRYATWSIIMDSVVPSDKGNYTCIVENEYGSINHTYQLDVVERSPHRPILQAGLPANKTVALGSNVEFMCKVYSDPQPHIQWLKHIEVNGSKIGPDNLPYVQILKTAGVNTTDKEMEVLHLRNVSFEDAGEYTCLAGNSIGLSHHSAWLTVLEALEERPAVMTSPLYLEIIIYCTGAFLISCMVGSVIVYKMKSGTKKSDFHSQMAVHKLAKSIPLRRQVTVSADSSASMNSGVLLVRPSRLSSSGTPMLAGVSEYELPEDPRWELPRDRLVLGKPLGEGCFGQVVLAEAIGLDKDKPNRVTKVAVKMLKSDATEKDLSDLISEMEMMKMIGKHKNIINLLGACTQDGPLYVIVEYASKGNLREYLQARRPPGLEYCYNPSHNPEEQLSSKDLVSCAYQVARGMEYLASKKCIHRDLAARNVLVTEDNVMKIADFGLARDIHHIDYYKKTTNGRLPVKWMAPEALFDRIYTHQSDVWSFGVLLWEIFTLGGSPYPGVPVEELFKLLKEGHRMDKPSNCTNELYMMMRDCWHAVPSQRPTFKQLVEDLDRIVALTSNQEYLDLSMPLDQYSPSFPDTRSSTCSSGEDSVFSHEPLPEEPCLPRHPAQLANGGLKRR
Test: phosphorylation enrichment, bacterial display (enrichment ratio); higher = better substrate or ligand; peptides without Tyr show the background
Give only the figure.

Example cases with answers are listed next.
- NNTFLYQLVFD [EXO1_Y284]: 1.65
- YLEEEYVKAVG [TF_Y674_G671E]: 0.606
- HLQQSYLPRGT [TEX45_Y396]: 0.97
- RLSVDYSKKSK [TUBA3E_Y161]: 0.373
- HLMLQYDAVVN [SLC25A32_Y152_R147H]: 1.19
- VSYGEYRYRSV [CFTR_Y515_D513G]: 0.505

If you can, please state the reported phosphorylation enrichment value of IMAFFYMCDSA [CASD1_Y382_R386S_YF] .
0.791

If you can, please state the reported phosphorylation enrichment value of ITQRAYRRHLL [SCN1A_Y1926_I1922T] .
0.442

If you can, please state the reported phosphorylation enrichment value of GLPINYTTRRI [LAMA2_Y2894] .
0.565

If you can, please state the reported phosphorylation enrichment value of FHLLPYTIRAM [PARS2_Y93_V95I_YF] .
0.547

If you can, please state the reported phosphorylation enrichment value of KKHIPYREHKS [CSNK1G1_Y205] .
1.31

If you can, please state the reported phosphorylation enrichment value of NDLMEYAKQHG [ASS1_Y163] .
0.487

If you can, please state the reported phosphorylation enrichment value of KLSHLYQDHMQ [WNT5A_Y86_C83S] .
0.439

If you can, please state the reported phosphorylation enrichment value of LKKKQYTSIHH [APP_Y728] .
0.631

If you can, please state the reported phosphorylation enrichment value of DLTQDYEEWKR [ORC6_Y232] .
0.509

If you can, please state the reported phosphorylation enrichment value of STEAIYWRYSK [SH3PXD2B_Y42_R43W] .
1.54

====

Biological target: Grb2 SH2 (UniProt P62993)
Sequence (P62993 whole entry, looked up): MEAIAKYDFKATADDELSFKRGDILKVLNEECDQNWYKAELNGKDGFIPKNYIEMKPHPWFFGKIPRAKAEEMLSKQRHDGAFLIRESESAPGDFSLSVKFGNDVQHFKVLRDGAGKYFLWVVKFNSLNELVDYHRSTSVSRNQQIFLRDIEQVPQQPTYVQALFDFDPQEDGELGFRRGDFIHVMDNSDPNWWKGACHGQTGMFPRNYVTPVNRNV
Experiment: SH2 binding enrichment of the phosphorylated peptide, bacterial display (enrichment ratio); higher = better substrate or ligand; peptides without Tyr show the background
Classify by measured SH2 binding enrichment: true if it is equal to or exceeds 0.9, false if it is smaller.

Study these solved cases before continuing.
- MHYSNYVSKGS [PDGFRA_Y849_D846Y]: true
- WSRAMYPDLGP [STARD8_Y330]: true
- LRGEDYGFSVD [PRKCI_Y430]: false
- QPSPSYDSSGG [TCF12_Y70_R74G]: true
- HFGCIYHGTLL [MET_Y1093_V1092I]: false
- TFSPPYYHRNC [HGD_Y333_R330S]: true
- RIFDYYSARKA [STOX1_Y858]: true
- RSRQIYDAFIM [GRK3_Y109_YF]: false

Has LKRIAYFLCLL [LGI1_Y21] a recorded SH2 binding enrichment greater than or equal to 0.9?
true

Has RWQQLYDTLNA [EIF3M_Y351_Q346R] a recorded SH2 binding enrichment greater than or equal to 0.9?
false

Has PGLKGYPGLSG [COL4A2_Y306_R304K] a recorded SH2 binding enrichment greater than or equal to 0.9?
false

Has MYQVQYNSSVD [LRFN1_Y458] a recorded SH2 binding enrichment greater than or equal to 0.9?
false

Has RIAFQYGVTDL [MYBPC3_Y340] a recorded SH2 binding enrichment greater than or equal to 0.9?
true

Has HTDDGYMPMSP [IRS1_Y612] a recorded SH2 binding enrichment greater than or equal to 0.9?
false

Has FFRDGHMPRQF [GSS_Y270_Y270H_YF] a recorded SH2 binding enrichment greater than or equal to 0.9?
false

Has SEDSEYFKAFE [CASQ2_Y178_YF] a recorded SH2 binding enrichment greater than or equal to 0.9?
false

Has YDCKWYIPLTD [BCR_Y756] a recorded SH2 binding enrichment greater than or equal to 0.9?
false

Has GIVEDYRPPLF [ACVRL1_Y421_F425L_YF] a recorded SH2 binding enrichment greater than or equal to 0.9?
false
